Data provenance is ChEMBL document CHEMBL1140437.

# ASSAYED TARGET: Opioid receptors; mu & kappa (Homo sapiens) (UniProt P41145+P35372)
# Sequence (P35372 whole entry, looked up): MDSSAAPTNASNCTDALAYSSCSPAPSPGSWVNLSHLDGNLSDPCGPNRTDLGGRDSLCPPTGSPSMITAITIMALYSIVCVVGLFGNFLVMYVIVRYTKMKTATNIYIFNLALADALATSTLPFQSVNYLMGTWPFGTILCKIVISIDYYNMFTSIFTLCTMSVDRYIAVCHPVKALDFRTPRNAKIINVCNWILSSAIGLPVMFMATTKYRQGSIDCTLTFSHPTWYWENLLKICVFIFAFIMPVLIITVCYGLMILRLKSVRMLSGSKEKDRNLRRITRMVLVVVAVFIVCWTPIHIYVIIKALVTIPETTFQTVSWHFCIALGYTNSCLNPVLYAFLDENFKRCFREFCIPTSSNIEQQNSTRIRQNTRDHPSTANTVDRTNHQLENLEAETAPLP
# Sequence (P41145 whole entry, looked up): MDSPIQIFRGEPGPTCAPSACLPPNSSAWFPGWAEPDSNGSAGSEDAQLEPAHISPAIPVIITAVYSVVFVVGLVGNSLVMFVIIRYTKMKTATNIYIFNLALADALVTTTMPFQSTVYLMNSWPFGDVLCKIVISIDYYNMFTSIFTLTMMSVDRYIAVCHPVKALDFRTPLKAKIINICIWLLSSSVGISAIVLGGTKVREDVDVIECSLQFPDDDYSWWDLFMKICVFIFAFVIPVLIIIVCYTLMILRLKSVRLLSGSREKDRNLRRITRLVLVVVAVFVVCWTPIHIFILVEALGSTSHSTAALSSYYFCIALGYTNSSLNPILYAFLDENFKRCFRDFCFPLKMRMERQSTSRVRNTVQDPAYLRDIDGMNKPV
# EXPERIMENT DESCRIPTION: Selectivity for cloned human mu opioid receptor over kappa opioid receptor
# Format: protein assay
Property: Ratio Ke; scope: individual molecules

MOLECULE	Ratio Ke
C[C@]12CC[C@@H](NC(=O)CCN3CCc4ccccc4C3)C[C@@]1(c1cccc(O)c1)CCN(CCCc1ccccc1)C2 (relative stereo)	45
C[C@]12CC[C@@H](NC(=O)c3cc4ccccc4s3)C[C@@]1(c1cccc(O)c1)CCN(CCCc1ccccc1)C2 (relative stereo)	25
C[C@]12CCCC[C@@]1(c1cccc(O)c1)CCN(CCc1ccccc1)C2 (relative stereo)	0.3
Oc1ccc2c3c1O[C@H]1c4[nH]c5c(c4C[C@@]4(O)[C@@H](C2)N(CC2CC2)CC[C@]314)C[C@@]1(O)[C@H]2Cc3ccc(O)c4c3[C@@]1(CCN2CC1CC1)[C@H]5O4	475
